# Target desc: T1, human TL1A extracellular domain with N-terminal HIS and FLAG tag (human, UniProt O95150 72-251)
# T1 construct: the whole entry is named
# T1 sequence: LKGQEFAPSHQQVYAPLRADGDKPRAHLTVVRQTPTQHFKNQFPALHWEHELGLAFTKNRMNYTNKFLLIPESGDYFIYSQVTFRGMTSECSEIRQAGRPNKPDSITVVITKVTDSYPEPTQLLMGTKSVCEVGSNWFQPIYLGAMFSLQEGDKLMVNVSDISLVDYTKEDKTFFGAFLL
# Assay explanation: SPR Run 6, purified Ab captured on Protein A, TL1A 5 ug/mL, timepoint 170
Observed property: TL1A Binding Level (Late) (RU)
Output spec: scalar in RU, unitless text.

Before answering, review these 2 worked examples.
[[record]]
binder = "320-449 (antibody, human IgG1, name in Kabat numbering, V domains shown, human IgG1, lambda) VH: QVQLVQSGAEVKKPGASVKVSCKASGYTFTSYHINWVRQAPGQGLEWMGWLNPNSGNTGYAQKFQGRVTMTADRSTSTAYMELSSLRSEDTAVYYCAREVPETAAFEYWGQGTLVTVSS VL: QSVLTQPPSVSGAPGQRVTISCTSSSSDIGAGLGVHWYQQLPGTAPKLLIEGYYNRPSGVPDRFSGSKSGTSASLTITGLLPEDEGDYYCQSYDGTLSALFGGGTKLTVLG"
endpoint_result = 59

[[record]]
binder = "320-433 (antibody, human IgG1, name in Kabat numbering, V domains shown, human IgG1, lambda) VH: QVQLVQSGAEVKKPGASVKVSCKASGYTFTDYDINWVRQAPGQGLEWMGWLNPNSGNTGYAQKFQGRVTMTADRSTSTAYMELSSLRSEDTAVYYCAREVPETAAFEYWGQGTLVTVSS VL: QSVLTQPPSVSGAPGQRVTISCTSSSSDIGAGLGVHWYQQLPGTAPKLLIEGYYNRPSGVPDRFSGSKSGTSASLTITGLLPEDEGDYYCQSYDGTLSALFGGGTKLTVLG"
endpoint_result = 83


Sample 320-477 (antibody, human IgG1, name in Kabat numbering, V domains shown, human IgG1, lambda) VH: QVQLVQSGAEVKKPGASVKVSCKASGYTFTHYDINWVRQAPGQGLEWMGWLNPNSGNTGYAQKFQGRVTMTADRSTSTAYMELSSLRSEDTAVYYCAREVPETAAFEYWGQGTLVTVSS VL: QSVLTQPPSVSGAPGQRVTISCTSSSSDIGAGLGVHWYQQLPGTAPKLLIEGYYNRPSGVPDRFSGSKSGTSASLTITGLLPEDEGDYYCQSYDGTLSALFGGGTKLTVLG ; TL1A Binding Level (Late) observed: 136

Origin of measurements: patent US20170081400A1
